# TEST_PROTOCOL: mouse rotorod test (sedation and incoordination)
# EXPERIMENTAL_SETUP: in vivo, po, ratio of rotorod ED50 to Straub tail ED50, p.o.
MEASURED_PROPERTY: selectivity ratio

>>> print(df.to_string())
                                   compound  measured_property  assay_result
0             NC(=O)/C=C1\CCc2c(F)cc(F)cc21  selectivity ratio           1.5
1  NC(=O)/C=C1\CCc2ccc(F)cc21 [Example 1, (E)-2-(6-Fluoro-1-indanylidene)acetamide]  selectivity ratio           1.7

###

Below, each entry is listed with its recorded TD50.
# TEST_PROTOCOL: mouse rotorod test (sedation and incoordination)
# EXPERIMENTAL_SETUP: in vivo, po
MEASURED_PROPERTY: TD50 (mg/kg)

>>> print(df.to_string())
                                   compound  measured_property  unit_info  assay_result
0             NC(=O)/C=C1\CCc2c(F)cc(F)cc21               TD50      mg/kg            79
1  NC(=O)/C=C1\CCc2ccc(F)cc21 [Example 1, (E)-2-(6-Fluoro-1-indanylidene)acetamide]               TD50      mg/kg            88

###

# TEST_PROTOCOL: single dose oral toxicity
# Format: in vivo, male CD-1 mice
# EXPERIMENTAL_SETUP: mouse, in vivo; single oral gavage, non-fasted male CD-1 mice, seven days; read-out: maximum tolerated dose
MEASURED_PROPERTY: MTD at 168 h

>>> print(df.to_string())
                                   molecule  assay_result
0  NC(=O)/C=C1\CCc2c(F)cc(F)cc21 [Example 5]  > 1000 mg/kg
1  NC(=O)/C=C1\CCc2ccc(F)cc21 [Example 1, (E)-2-(6-Fluoro-1-indanylidene)acetamide]   > 250 mg/kg

Every entry's value here was drawn from patent US5872118A.
